- setup.conditions: rat; liver microsomes; pH 7.4; 15.0 min; 1.0 µM
Entries and their measured half-life follow.
Number in min, nothing else.

Known results for compounds:
>>> df
                                   compound  observable  reading
0  CCN(C(=O)C(NS(=O)(=O)c1ccc(Br)s1)c1ccccc1)c1ccc(C)c(C)c1 (centres undefined)   half-life     0.99
1  CCN(CC)CCO[C@H]1CC[C@@]2(C)C(=CC[C@@H]3[C@@H]2CC[C@]2(C)C(=O)CC[C@@H]32)C1   half-life     5.67
2  Cc1ccc(S(=O)(=O)Nc2cnccc2C(=O)Nc2nc(-c3cnn(C)c3)cs2)cc1   half-life       13
3  CCc1ccc(NC(=O)[C@H](Cc2c[nH]c3ccccc23)NC(=O)[C@@H]2Cc3ccccc3CN2)cc1   half-life     2.32
4  CCOc1ccc(CCNC(=O)c2ccc(C3(C(F)(F)F)N=N3)cc2)cc1OCC   half-life       11

Q) Annotate the compound `CC(C)c1ccccc1-c1nc(NCc2ccc(-c3cccnc3)cc2)c2ccccc2n1` with its measured half-life.
A) 9.21

Q) Annotate the compound `COc1cccc(CNc2ccc(S(=O)(=O)Nc3cccnc3)cc2)c1O` with its measured half-life.
A) 15

###

- setup.conditions: rat; liver microsomes; pH 7.4; 15.0 min; 1.0 µM
Entries and their measured half-life follow.
Number in min, nothing else.

Known results for molecules:
                                   molecule  observable  reading
0  CS(=O)(=O)CCNCc1ccc(-c2ccc3ncnc(Nc4ccc(OCc5cccc(F)c5)c(Cl)c4)c3c2)o1   half-life     7.65
1  CN(C(=O)CNC(=O)c1cc(F)ccc1OCC(=O)Nc1ccc(I)cc1)c1ccc(F)cc1   half-life     1.74
2  NC(=O)C1CCN(c2nc(-c3ccccc3[N+](=O)[O-])cs2)CC1   half-life      3.9
3  O=C(c1cnccn1)N1CCC2(CCCN(C(c3ccccc3)c3ccccc3)C2)CC1   half-life      1.8
4      Cc1ccc(CNCc2cn[nH]c2-c2ccc(C)cc2)cc1   half-life     1.34
5  O=C(O)CNC(=O)c1c(O)c2ccccc2n(Cc2ccccc2)c1=O   half-life     23.6

Q) Annotate the molecule `COc1ccc(NC(=O)c2[nH]c(C)c(C(C)=O)c2C)cc1S(=O)(=O)Nc1cccc(C#N)c1` with its measured half-life.
A) 15

Q) Annotate the molecule `COc1nccc(-c2nc(Nc3ccc(F)c(F)c3)c3ccccc3n2)c1OC` with its measured half-life.
A) 26

Q) Annotate the molecule `COc1ccc(-c2nc3sc(CCNC(=O)C(C)(C)C)c(C)n3n2)cc1` with its measured half-life.
A) 9.33

Q) Annotate the molecule CNC1(c2ccccc2Cl)CCCCC1=O (configuration not stated) with its measured half-life.
A) 4.44

Q) Annotate the molecule `COc1cc(F)ccc1-c1nc(-c2c(C)noc2C)cc2c1cc(C)n2C` with its measured half-life.
A) 21.6

Q) Annotate the molecule `NC[C@H](O)c1ccc(O)c(O)c1` with its measured half-life.
A) 13.4

Q) Annotate the molecule `Cc1ccc(S(=O)(=O)Nc2ccccc2C(=O)Nc2nc(-c3ccccc3)cs2)cc1` with its measured half-life.
A) 2.4

Q) Annotate the molecule COc1ccccc1NC(=O)C1=C(C)Nc2c(C(=O)Nc3ccc(F)cc3)cnn2C1c1ccc(Cl)cc1 (configuration not stated) with its measured half-life.
A) 3.34
